- Test system: OVCAR-3 ovarian
- PROTOCOL_DESCRIPTION: NCI-60 one-dose screen, 48 h (100 = growth as untreated, 0 = no growth, -100 = all killed)
- TEST_SETTINGS: 10 µM
The panel holds about 83,000 compounds, 20% with a hit somewhere; the sample as a whole holds those more often.
// growth lookup, one value per entry

COMPOUND: CC(C)(O)CCl
growth (%): 114
//
COMPOUND: Nc1ncc(-c2cnn(C3CCNCC3)c2)cc1-c1nc2ccccc2o1
growth (%): -62.4
//
COMPOUND: CCOC(=O)c1sc2ncnc(Nc3ccc4c(cnn4C(=O)Nc4ccccc4)c3)c2c1C
growth (%): 67.8
//
COMPOUND: CC(C)(C)c1ccc(S(=O)(=O)N[C@H]2CC[C@H]3[C@@H]4CCc5cc(O)ccc5[C@H]4CC[C@]23C)cc1
growth (%): 37.3
//
COMPOUND: C=CCn1c(SCC(=O)Nc2ccc(C(=O)/C=C/c3cc(OC)c(OC)c(OC)c3)cc2)nnc1-c1cc(-c2ccc(Cl)cc2)nc2ccccc12
growth (%): 97.3
//
COMPOUND: O=C(Nc1ccccc1)Nc1ncnc2c1ncn2-c1ccccc1
growth (%): 73.7
//
COMPOUND: CC(C)=CCC/C(C)=C/CC/C(C)=C/CC/C=C(\C)CC/C=C(\C)CCC(=O)Nc1ccn(C2OC(CO)C(O)C2(F)F)c(=O)n1 (centres undefined)
growth (%): 40.2
//
COMPOUND: Cc1cc(CCNC=O)c(C)c2c1sc1ccccc12
growth (%): 111
//
COMPOUND: CN(C)c1ccc(/C=N/NC(=O)c2ccccc2Nc2cccc(C(F)(F)F)c2)cc1
growth (%): 87.7
